# tested-target: Octopamine receptor (Periplaneta americana)
# assay-name: Agonist activity at Periplaneta americana (American cockroach) thoracic nerve cord octopaminergic receptor assessed as induction of adenylate cyclase-mediated cAMP production per mg protein by radioimmunoassay
observation-type: Ka (µM)
Numeric only. Scale: µM

- Clc1ccc(CNC2=NCCO2)cc1Cl: 2.3
- Cc1cc(Br)ccc1/N=C1/NCCO1: 0.19
- NCC(O)c1ccc(O)cc1 (centres undefined): 7.6

Query: // map CCc1ccc(/N=C2/NCCO2)cc1 to recorded Ka (system: Octopamine receptor (Periplaneta americana))
Reply: 36

Query: And Cc1cc(Cl)ccc1/N=C1/NCCO1 ?
Reply: 0.18

Query: And CCc1cccc(CC)c1NC1=NCCN1 ?
Reply: 0.44

Query: And Clc1ccc(CNC2=NCCS2)cc1Cl ?
Reply: 0.4

Query: And CCc1cccc(CC)c1/N=C1/NCCO1 ?
Reply: 0.44

Query: And Clc1cccc(CNC2=NCCO2)c1 ?
Reply: 0.16

* * *

# tested-target: UniProtKB Q7YWB7
# Sequence (whole entry): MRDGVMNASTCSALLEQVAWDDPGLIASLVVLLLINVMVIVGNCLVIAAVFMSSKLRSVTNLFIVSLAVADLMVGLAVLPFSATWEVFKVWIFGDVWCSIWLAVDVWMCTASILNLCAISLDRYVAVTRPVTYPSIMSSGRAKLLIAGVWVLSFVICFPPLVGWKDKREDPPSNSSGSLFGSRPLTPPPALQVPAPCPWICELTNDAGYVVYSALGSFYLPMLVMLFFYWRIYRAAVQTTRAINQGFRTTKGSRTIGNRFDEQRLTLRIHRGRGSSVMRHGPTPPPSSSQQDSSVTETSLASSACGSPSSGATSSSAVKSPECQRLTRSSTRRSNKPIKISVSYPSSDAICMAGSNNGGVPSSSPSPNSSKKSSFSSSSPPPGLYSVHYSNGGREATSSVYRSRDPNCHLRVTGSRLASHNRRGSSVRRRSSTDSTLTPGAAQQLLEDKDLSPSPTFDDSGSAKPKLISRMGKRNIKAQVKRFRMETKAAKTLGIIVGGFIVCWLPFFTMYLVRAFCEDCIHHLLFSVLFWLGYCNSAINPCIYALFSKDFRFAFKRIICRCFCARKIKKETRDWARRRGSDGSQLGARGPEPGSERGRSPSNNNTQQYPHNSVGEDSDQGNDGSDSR
# assay-name: Agonist activity at Periplaneta americana (American cockroach) thoracic nerve cord octopaminergic receptor assessed as induction of adenylate cyclase-mediated cAMP production per mg protein at 100 uM by radioimmunoassay
Each entry below carries its recorded Activity.
Numeric only. Scale: pmol/min

Answered examples (5):
- O=[N+]([O-])c1cccc(CNC2=NCCO2)c1: 206
- FC(F)(F)c1cccc(CNC2=NCCO2)c1: 200
- Clc1ccc(/N=C2/NCCO2)c(Cl)c1Cl: 189
- Brc1ccccc1CNC1=NCCO1: 164
- COc1cc(/N=C2/NCCO2)cc(OC)c1OC: 61.2

Query: // map Fc1cccc(F)c1/N=C1/NCCO1 to recorded Activity (system: UniProtKB Q7YWB7)
Reply: 109

Query: And CCc1ccccc1/N=C1/NCCO1 ?
Reply: 84.1

Query: And Cc1cc(Br)ccc1/N=C1/NCCO1 ?
Reply: 214

Query: And COc1ccc(CNC2=NCCO2)cc1 ?
Reply: 199

Query: And Clc1cc(Br)ccc1/N=C1/NCCO1 ?
Reply: 66.4

Query: And Clc1ccccc1CNC1=NCCO1 ?
Reply: 200

Query: And FC(F)(F)c1ccc(C(F)(F)F)c(/N=C2/NCCO2)c1 ?
Reply: 88.3

Query: And Cc1cc(Cl)ccc1/N=C1/NCCO1 ?
Reply: 204

* * *

# tested-target: UniProtKB Q7YWB7
# assay-name: Agonist activity at Periplaneta americana (American cockroach) thoracic nerve cord octopaminergic receptor assessed as induction of adenylate cyclase-mediated cAMP production per mg protein at 100 uM by radioimmunoassay relative to octopamine
observation-type: max activation (%)
Numeric only. Scale: %

Query: Item Cc1ccc(CNC2=NCCO2)cc1 has what recorded max activation?
Reply: 35.2

Query: And Fc1ccc(F)c(/N=C2/NCCO2)c1 ?
Reply: -7.7

Query: And Cc1cc(Cl)ccc1/N=C1/NCCO1 ?
Reply: 17.9

Query: And COc1cccc(CNC2=NCCO2)c1OC ?
Reply: 8.9

Query: And CCc1ccccc1/N=C1/NCCO1 ?
Reply: -5

Query: And Clc1cc(Br)ccc1/N=C1/NCCO1 ?
Reply: -8.4

Query: And Fc1ccc(F)c(CNC2=NCCO2)c1 ?
Reply: 19.3

Query: And Fc1cccc(F)c1/N=C1/NCCO1 ?
Reply: -0.3

Query: And Brc1cc(Br)c(/N=C2/NCCO2)c(Br)c1 ?
Reply: -4.4

Query: And Fc1cc(F)c(/N=C2/NCCO2)c(F)c1 ?
Reply: 2.5

Query: And FC(F)(F)c1ccc(C(F)(F)F)c(/N=C2/NCCO2)c1 ?
Reply: -4.2

Query: And Clc1ccc(CNC2=NCCO2)cc1 ?
Reply: 31.7

Query: And Clc1cccc(/N=C2/NCCO2)c1 ?
Reply: 0.2
